tested on: NK-92 (IL-2 2.5 ng/mL); experiment: percent inhibition of viability; higher = more inhibition; conditions: 72 h; 0.1 nM;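 note: normalised to DMSO-only wells as negative and benzethonium chloride as positive control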
This listing pairs molecules with measured percent inhibition of viability.

MOLECULE	percent inhibition of viability (%)
C/C(=C\c1csc(C)n1)[C@@H]1C[C@@H]2O[C@]2(C)CCC[C@H](C)[C@H](O)[C@@H](C)C(=O)C(C)(C)[C@@H](O)CC(=O)N1 [Ixabepilone] (max concentration tested 1000 nM)	-7.7
CC[C@@H]1C(=O)N(C)c2cnc(Nc3ccc(C(=O)N[C@H]4CC[C@H](N5CCN(CC6CC6)CC5)CC4)cc3OC)nc2N1C(C)C [Volasertib] (max concentration tested 1000 nM)	-14.8
Nc1ccn([C@@H]2O[C@H](CO)[C@@H](O)C2(F)F)c(=O)n1 [Gemcitabine] (max concentration tested 1000 nM)	-6.25
CC(=O)Nc1ccc(C(=O)Nc2ccccc2N)cc1 [Tacedinaline] (max concentration tested 1000 nM)	-18.8
Cc1ccc(NC(=O)c2ccc(CN3CC[C@H](N(C)C)C3)c(C(F)(F)F)c2)cc1Nc1nccc(-c2cncnc2)n1 [Bafetinib] (max concentration tested 1000 nM)	-11.6
CCC/C=C/C=C/C(=O)O[C@H]1/C(=C/C(=O)OC)C[C@H]2C[C@H]([C@@H](C)O)OC(=O)C[C@H](O)C[C@@H]3C[C@H](OC(C)=O)C(C)(C)[C@](O)(C[C@@H]4C/C(=C/C(=O)OC)C[C@H](/C=C/C(C)(C)[C@]1(O)O2)O4)O3 [Bryostatin 1] (max concentration tested 100 nM)	25.5
O=C(NOC[C@H](O)CO)c1ccc(F)c(F)c1Nc1ccc(I)cc1F (max concentration tested 1000 nM)	-5.72

---

test system: normal primary NK cells, pool 1 (3 donors) (IL-2 2.5 ng/mL); experiment: drug sensitivity score (DSS) (DSS units); higher = more sensitive; extreme values may be limits of the assay; conditions: 72 h
Entry flag: true (1) if drug sensitivity score reaches 6; false (0) if it does not.

COMPOUND	TESTED_ON	CLASSIFICATION
C[C@@H]1COC(Nc2ccc3ncnc(Nc4ccc(OCc5nccs5)c(Cl)c4)c3c2)=N1 [Varlitinib] (max concentration tested 10000 nM)	normal primary NK cells, pool 1 (3 donors) (IL-2 2.5 ng/mL)	false (0)
COc1cc2ncnc(Nc3ccc(F)c(Cl)c3)c2cc1NC(=O)/C=C/CN1CCCCC1 [Dacomitinib] (max concentration tested 1000 nM)	normal primary NK cells, pool 1 (3 donors) (IL-2 2.5 ng/mL)	false (0)
Cn1cc(CNCC2CCN(c3ncc(C(=O)NO)cn3)CC2)c2ccccc21 [Quisinostat] (max concentration tested 1000 nM)	normal primary NK cells, pool 1 (3 donors) (IL-2 2.5 ng/mL)	true (1)
COc1ccc(COc2cc3oc(=O)c4cc(C(C)O)ccc4c3cc2OC)cc1 (configuration not stated) [Palomid-529] (max concentration tested 10000 nM)	normal primary NK cells, pool 1 (3 donors) (IL-2 2.5 ng/mL)	false (0)
O=C1c2c(O)ccc(O)c2C(=O)c2c(NCCNCCO)ccc(NCCNCCO)c21 [Mitoxantrone] (max concentration tested 1000 nM)	normal primary NK cells, pool 1 (3 donors) (IL-2 2.5 ng/mL)	false (0)
CN[C@@H]1C[C@H]2O[C@@](C)([C@@H]1OC)n1c3ccccc3c3c4c(c5c6ccccc6n2c5c31)C(=O)N[C@H]4O [UCN-01] (max concentration tested 10000 nM)	normal primary NK cells, pool 1 (3 donors) (IL-2 2.5 ng/mL)	true (1)
Cc1cc(Nc2cc(N3CCN(C)CC3)nc(/C=C/c3ccccc3)n2)n[nH]1 [ENMD-2076] (max concentration tested 10000 nM)	normal primary NK cells, pool 1 (3 donors) (IL-2 2.5 ng/mL)	true (1)
CNC(=O)c1nn(C)c2c1C(C)(C)Cc1cnc(Nc3ccc(N4CCN(C)CC4)cc3)nc1-2 [Milciclib] (max concentration tested 10000 nM)	normal primary NK cells, pool 1 (3 donors) (IL-2 2.5 ng/mL)	true (1)
Cc1nc(Nc2ncc(C(=O)Nc3c(C)cccc3Cl)s2)cc(N2CCN(CCO)CC2)n1 [Dasatinib] (max concentration tested 1000 nM)	normal primary NK cells, pool 1 (3 donors) (IL-2 2.5 ng/mL)	true (1)
CO[C@H]1/C=C\C=C(/C)C(=O)NC2=CC(=O)C(NCCN(C)C)=C(C[C@@H](C)C[C@H](OC)[C@H](O)[C@@H](C)/C=C(\C)[C@@H]1OC(N)=O)C2=O [Alvespimycin] (max concentration tested 1000 nM)	normal primary NK cells, pool 1 (3 donors) (IL-2 2.5 ng/mL)	true (1)
CCCCC/C=C/C=C1/C(=O)C=C[C@@H]1C/C=C\CCCC(=O)O [15D-PGJ2] (max concentration tested 3000 nM)	normal primary NK cells, pool 1 (3 donors) (IL-2 2.5 ng/mL)	false (0)
